system: pAKT in T47D (PI3Kα H1047R mutant) cells; assay: Inhibition of pAKT (alphaLISA Surefire Ultra AKT 1/2/3 pS473) in T47D cells; assay type: cell-based; settings: Homo sapiens; T47D (PI3Kα H1047R mutant) cells, 24 hr compound incubation, alphaLISA pS473; read-out: T47D (H1047R) pAKT 24 hr (IC50)
Listing: pIC50 of selected molecules
# pIC50: negative log10 of molar concentration; output just the value

Some entries whose results are on file:
Give the measured pIC50 of Cc1cc([C@@H](C)Nc2ccc(Cl)nc2C(=O)O)c2nc(N3CCO[C@H](CO)C3)c(C#N)nc2c1 [Example 235A] .
8.70

Give the measured pIC50 of Cc1cc([C@@H](C)Nc2ccc(Cl)nc2C(=O)O)c2nc(N3CCc4ccn(C)c(=O)c4C3)c(C#N)nc2c1 .
8.38

Give the measured pIC50 of Cc1cc([C@@H](C)Nc2ccc(Cl)nc2C(=O)O)c2nc(N3CCCOCC3)c(C#N)nc2c1 .
9.55

Give the measured pIC50 of Cc1cc([C@@H](C)Nc2ccc(Cl)nc2C(=O)O)c2nc(N3CCO[C@@H]4C[C@@H]43)c(C#N)nc2c1 (single isomer, unassigned) [Example 239A] .
9.00

Give the measured pIC50 of Cc1cc([C@@H](C)Nc2ccc(Cl)nc2C(=O)O)c2nc(N3CC4C[C@]4(C(F)(F)F)C3)c(C#N)nc2c1 (single isomer, unassigned) [Example 43B] .
7.77

Further cases:
Give the measured pIC50 of Cc1cc([C@@H](C)Nc2ccc(Cl)nc2C(=O)O)c2nc(N3CCN(c4ccc(C(F)(F)F)nc4)CC3)c(C#N)nc2c1 .
9.10

Give the measured pIC50 of Cc1cc([C@@H](C)Nc2ccc(Cl)nc2C(=O)O)c2nc(N3C[C@H](F)C[C@H]3C)c(C#N)nc2c1 [Example 246C] .
9.01

Give the measured pIC50 of Cc1cc([C@@H](C)Nc2ccc(Cl)nc2C(=O)O)c2nc(N3C[C@H](CO)C(F)(F)C3)c(C#N)nc2c1 (single isomer, unassigned) [Example 210A] .
9.16
